Reference for the values: ChEMBL document CHEMBL1667760

Quick reference for Activity among some molecules
- Tested on: MCF7
- measurement.description: Cell cycle arrest in human MCF7 cells assessed as accumulation at S phase at 5 uM after 24 hrs using propidium iodide staining by flow cytometry relative to control
- Format: functional
endpoint.name: Activity (%)

[[record]]
molecule = "COc1cc(C2=NOC(c3cc(OC)c(OC)c(OC)c3)C2)cc(OC)c1O (centres undefined)"
number = 20.6

[[record]]
molecule = "COc1ccc(/C=C\\c2cc(OC)c(OC)c(OC)c2)cc1O"
number = 15.92

[[record]]
molecule = "COc1cc(C2NC(=O)c3ccccc3N2)ccc1OCCCCCOc1c(OC)cc(C2=NOC(c3cc(OC)c(OC)c(OC)c3)C2)cc1OC (centres undefined)"
number = 22.38

[[record]]
molecule = "COc1cc(C2NC(=O)c3ccccc3N2)ccc1OCCCCCBr (centres undefined)"
number = 12.75


---

Quick reference for GI50 among some compounds
- Test system: KB
- measurement.description: Cytotoxicity against human KB cells after 48 hrs by sulforhodamine B assay
- Assay type: functional
Where a name gives a salt, the structure may show the parent alone.
endpoint.name: GI50 (µM)

[[record]]
compound = "COc1cc(C2NC(=O)c3ccccc3N2)ccc1OCCCOc1cc(C2CC(c3cc(OC)c(OC)c(OC)c3)=NO2)ccc1OC (stereo not drawn)"
qual = "="
number = 28

[[record]]
compound = "COc1ccc(-c2cc(-c3cc(OC)c(OC)c(OC)c3)on2)cc1OCCCCOc1cc(C2NC(=O)c3ccccc3N2)ccc1OC (stereo not drawn)"
qual = ">"
number = 100

[[record]]
compound = "COc1ccc(C2NC(=O)c3ccccc3N2)cc1OCCCCOc1c(OC)cc(-c2cc(-c3cc(OC)c(OC)c(OC)c3)no2)cc1OC (stereo not drawn)"
qual = "="
number = 26

[[record]]
compound = "COc1cc(C2NC(=O)c3ccccc3N2)ccc1OCCCCOc1cc(C2CC(c3cc(OC)c(OC)c(OC)c3)=NO2)ccc1OC (stereo not drawn)"
qual = "="
number = 30

[[record]]
compound = "COc1cc(C2NC(=O)c3ccccc3N2)ccc1OCCCCOc1c(OC)cc(C2=NOC(c3cc(OC)c(OC)c(OC)c3)C2)cc1OC (stereo not drawn)"
qual = "="
number = 21

[[record]]
compound = "COc1cccc2c1C(=O)c1c(O)c3c(c(O)c1C2=O)C[C@@](O)(C(=O)CO)C[C@@H]3O[C@H]1C[C@H](N)[C@H](O)[C@H](C)O1 [DOXORUBICIN HYDROCHLORIDE]"
qual = "="
number = 0.19

[[record]]
compound = "COc1cc(C2NC(=O)c3ccccc3N2)ccc1OCCCOc1c(OC)cc(C2=NOC(c3cc(OC)c(OC)c(OC)c3)C2)cc1OC (stereo not drawn)"
qual = "="
number = 22

[[record]]
compound = "COc1cc(C2NC(=O)c3ccccc3N2)ccc1OCCCCCOc1cc(C2CC(c3cc(OC)c(OC)c(OC)c3)=NO2)ccc1OC (stereo not drawn)"
qual = "="
number = 27


---

- Tested on: OVCAR-8
- measurement.description: Cytotoxicity against human OVCAR8 cells after 48 hrs by sulforhodamine B assay
- Type: functional
- experimental.context: OVCAR-8, 48 h, read-out: GI50
Counter-ions that a name gives are not always drawn.
With a cut-off of 0.2 µM, any GI50 strictly below it is called t; any GI50 meeting it or above is called f.

[[record]]
molecule = "COc1cc(C2NC(=O)c3ccccc3N2)ccc1OCCCCOc1cc(C2CC(c3cc(OC)c(OC)c(OC)c3)=NO2)ccc1OC (stereo not drawn)"
cat = "t"

[[record]]
molecule = "COc1cccc2c1C(=O)c1c(O)c3c(c(O)c1C2=O)C[C@@](O)(C(=O)CO)C[C@@H]3O[C@H]1C[C@H](N)[C@H](O)[C@H](C)O1 [DOXORUBICIN HYDROCHLORIDE]"
cat = "t"

[[record]]
molecule = "COc1cc(C2NC(=O)c3ccccc3N2)ccc1OCCCCOc1c(OC)cc(C2=NOC(c3cc(OC)c(OC)c(OC)c3)C2)cc1OC (stereo not drawn)"
cat = "f"

[[record]]
molecule = "COc1ccc(C2NC(=O)c3ccccc3N2)cc1OCCCCOc1c(OC)cc(-c2cc(-c3cc(OC)c(OC)c(OC)c3)no2)cc1OC (stereo not drawn)"
cat = "f"

[[record]]
molecule = "COc1cc(C2NC(=O)c3ccccc3N2)ccc1OCCCCCOc1cc(C2CC(c3cc(OC)c(OC)c(OC)c3)=NO2)ccc1OC (stereo not drawn)"
cat = "t"

[[record]]
molecule = "COc1cc(C2NC(=O)c3ccccc3N2)ccc1OCCCOc1c(OC)cc(C2=NOC(c3cc(OC)c(OC)c(OC)c3)C2)cc1OC (stereo not drawn)"
cat = "f"

[[record]]
molecule = "COc1cc(C2NC(=O)c3ccccc3N2)ccc1OCCCOc1cc(C2CC(c3cc(OC)c(OC)c(OC)c3)=NO2)ccc1OC (stereo not drawn)"
cat = "t"

[[record]]
molecule = "COc1ccc(-c2cc(-c3cc(OC)c(OC)c(OC)c3)on2)cc1OCCCCOc1cc(C2NC(=O)c3ccccc3N2)ccc1OC (stereo not drawn)"
cat = "t"

